# Test Target: KRAS G12S (Homo sapiens (Human), UniProt P01116+P62937, G12S)
# Sequence (P01116 other isoform, or with tags, fused parts or gaps G12S): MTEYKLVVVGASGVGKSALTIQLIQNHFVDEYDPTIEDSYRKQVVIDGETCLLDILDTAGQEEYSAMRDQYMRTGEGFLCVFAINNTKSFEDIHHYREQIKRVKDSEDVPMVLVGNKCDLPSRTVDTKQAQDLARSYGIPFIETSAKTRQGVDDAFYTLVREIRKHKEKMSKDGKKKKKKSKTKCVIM
# Sequence (P62937 whole entry): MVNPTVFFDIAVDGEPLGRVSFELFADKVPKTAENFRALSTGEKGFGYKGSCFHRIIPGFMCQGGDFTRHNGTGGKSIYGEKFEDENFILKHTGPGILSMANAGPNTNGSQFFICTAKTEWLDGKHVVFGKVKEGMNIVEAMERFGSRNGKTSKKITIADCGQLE
# Measurement Notes: Ras-Raf disruption/FRET/MOA assay (BRAF RBD, Cyclophilin A)
# Assay type: biochemical
# Conditions: read-out: KRAS G12S FRET IC50
pIC50: −log10 of the molar value.
Examples of compounds with documented pIC50 follow.

CCn1c(-c2cccnc2[C@H](C)OC)c2c3cc(ccc31)-c1csc(n1)C[C@H](NC(=O)[C@H](C(C)C)N(C)C(=O)N1CCC1C(=O)O)C(=O)N1CCC[C@H](N1)C(=O)OCC(C)(C)C2 (stereo partly drawn) [Compound A271] ... 5.00 to 6.00

input: Look up pIC50: CCn1c(-c2cnccc2COC)c2c3cc(ccc31)-c1cc(O)cc(c1)C[C@H](NC(=O)[C@@H](NC(C)=O)C(C)C)C(=O)N1CCC[C@H](N1)C(=O)OCC(C)(C)C2 [Compound A58]
output: 5.00 to 6.00

input: Look up pIC50: CCn1c(-c2cccnc2[C@H](C)OC)c2c3cc(ccc31)-c1cc(O)cc(c1)C[C@H](NC(=O)[C@H](C(C)C)N(C)C(=O)[C@H]1CCCCNC1)C(=O)N1CCC[C@H](N1)C(=O)OCC(C)(C)C2 [Compound A242]
output: 7.00 to 8.00

input: Look up pIC50: CO[C@@H](C)c1ncccc1-c1c2c3cc(ccc3n1CC(F)(F)F)-c1csc(n1)C[C@H](NC(=O)[C@H](C(C)C)N(C)C(=O)N1CC(N(C)C)C1)C(=O)N1CCC[C@H](N1)C(=O)OCC(C)(C)C2 [Compound A303]
output: 6.00 to 7.00

input: Look up pIC50: CCn1c(-c2cccnc2[C@H](C)OC)c2c3cc(ccc31)-c1csc(n1)C[C@H](NC(=O)[C@H](C(C)C)N(C)C(=O)N1CCOCC13COC3)C(=O)N1CCC[C@H](N1)C(=O)OCC(C)(C)C2 [Compound A474]
output: 6.00 to 7.00

input: Look up pIC50: CCn1c(-c2cccnc2[C@H](C)OC)c2c3cc(ccc31)-c1cc(O)cc(c1)C[C@H](NC(=O)[C@H](C(C)C)N(C)C(=O)[C@H]1CC[C@@H](C(N)=O)O1)C(=O)N1CCC[C@H](N1)C(=O)OCC(C)(C)C2 [Compound A414]
output: 7.00 to 8.00

input: Look up pIC50: CCn1c(-c2cccnc2[C@H](C)OC)c2c3cc(ccc31)-c1cc(O)cc(c1)C[C@H](NS(=O)(=O)c1ccc(O)cc1)C(=O)N1CCC[C@H](N1)C(=O)OCC(C)(C)C2 [Compound A195]
output: < 5.00

input: Look up pIC50: CCn1c(-c2cccnc2[C@H](C)OC)c2c3cc(ccc31)-c1cc(O)cc(c1)C[C@H](NC(=O)[C@H](C(C)C)N(C)C(=O)[C@H]1CC[C@@H]1N)C(=O)N1CCC[C@H](N1)C(=O)OCC(C)(C)C2 [Compound A392]
output: 7.00 to 8.00

input: Look up pIC50: CCn1c(-c2cccnc2[C@H](C)OC)c2c3cc(ccc31)-c1csc(n1)C[C@H](NC(=O)N1CC[C@@H]1COC)C(=O)N1CCC[C@H](N1)C(=O)OCC(C)(C)C2 [Compound A264]
output: 6.00 to 7.00

###

# Test Target: KRAS G13C (Homo sapiens (Human), UniProt P01116+P62937, G13C)
# Sequence (P01116 other isoform, or with tags, fused parts or gaps G13C): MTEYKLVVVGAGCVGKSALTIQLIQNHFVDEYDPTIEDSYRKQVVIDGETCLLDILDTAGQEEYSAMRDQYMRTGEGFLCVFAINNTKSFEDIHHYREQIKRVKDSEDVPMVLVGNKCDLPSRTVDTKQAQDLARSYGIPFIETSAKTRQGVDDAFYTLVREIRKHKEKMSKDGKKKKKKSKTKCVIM
# Sequence (P62937 whole entry): as the sequence (P62937 whole entry) above
# Measurement Notes: Ras-Raf disruption/FRET/MOA assay (BRAF RBD, Cyclophilin A)
# Type: biochemical
# Conditions: read-out: KRAS G13C FRET IC50
pIC50: −log10 of the molar value.
Endpoint Label: pIC50

CCn1c(-c2cccnc2[C@H](C)OC)c2c3cc(ccc31)-c1cc(O)cc(c1)C[C@H](NC(=O)C(C)C1CCOCC1)C(=O)N1CCC[C@H](N1)C(=O)OCC(C)(C)C2 (stereo partly drawn) [Compound A236] ... 6.00 to 7.00

input: Look up pIC50: CCn1c(-c2cccnc2[C@H](C)OC)c2c3cc(ccc31)-c1csc(n1)C[C@H](NC(=O)C1CC1)C(=O)N1CCC[C@H](N1)C(=O)OCC(C)(C)C2 [Compound A367]
output: 6.00 to 7.00

input: Look up pIC50: CCn1c(-c2cccnc2[C@H](C)OC)c2c3cc(ccc31)-c1csc(n1)C[C@H](NC(=O)[C@H](C(C)C)N(C)C(=O)N1CC3(CCN(C)C3)C1)C(=O)N1CCC[C@H](N1)C(=O)OCC(C)(C)C2 [Compound A602]
output: 6.00 to 7.00

input: Look up pIC50: CCn1c(-c2cccnc2[C@H](C)OC)c2c3cc(ccc31)-c1cc(cc(C(F)F)c1)C[C@H](NC(=O)[C@H](C(C)C)N(C)C(=O)[C@@H]1OCC[C@@H]1c1ccccc1)C(=O)N1CCC[C@H](N1)C(=O)OCC(C)(C)C2 [Compound A592]
output: 6.00 to 7.00

input: Look up pIC50: CCn1c(-c2cnccc2COC)c2c3cc(ccc31)-c1cc(O)cc(c1)C[C@H](NC(=O)[C@H](C(C)C)N(C)C(=O)[C@H]1CCN(C3COC3)C1)C(=O)N1CCC[C@H](N1)C(=O)OCC(C)(C)C2 [Compound A51]
output: 6.00 to 7.00

input: Look up pIC50: CCn1c(-c2cccnc2[C@H](C)OC)c2c3cc(ccc31)-c1csc(n1)C[C@H](NC(=O)[C@H](C(C)C)N1CCC3(CCN(C)C3)C1=O)C(=O)N1CCC[C@H](N1)C(=O)OCC(C)(C)C2 (stereo partly drawn) [Compound A213]
output: 5.00 to 6.00

input: Look up pIC50: CCn1c(-c2cccnc2[C@H](C)OC)c2c3cc(ccc31)-c1cc(O)cc(c1)C[C@H](NC(=O)[C@H](C(C)C)N(C)C(=O)C1(C(=O)O)CC1)C(=O)N1CCC[C@H](N1)C(=O)OCC(C)(C)C2 [Compound A150]
output: 5.00 to 6.00

input: Look up pIC50: CCn1c(-c2cccnc2[C@H](C)OC)c2c3cc(ccc31)-c1cc(O)cc(c1)C[C@H](NC(=O)[C@@H](C(C)C)N(C)C(C)=O)C(=O)N1CCC[C@H](N1)C(=O)OCC(C)(C)C2 [Compound A256]
output: 6.00 to 7.00

input: Look up pIC50: CCn1c(-c2cccnc2[C@H](C)OC)c2c3cc(ccc31)-c1csc(n1)C[C@H](NC(=O)N1CCC1)C(=O)N1CCC[C@H](N1)C(=O)OCC(C)(C)C2 [Compound A368]
output: 6.00 to 7.00

###

Examples of molecules with documented pIC50 follow.
# Test Target: NRAS WT (Homo sapiens (Human), UniProt P01111+P62937)
# Sequence (P01111 whole entry): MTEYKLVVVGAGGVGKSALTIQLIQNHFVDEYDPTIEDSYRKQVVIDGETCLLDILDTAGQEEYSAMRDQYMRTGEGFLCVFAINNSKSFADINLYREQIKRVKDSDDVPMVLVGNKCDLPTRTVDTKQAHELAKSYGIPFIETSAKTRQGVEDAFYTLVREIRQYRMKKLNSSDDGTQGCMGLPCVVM
# Sequence (P62937 whole entry): as the sequence (P62937 whole entry) above
# Measurement Notes: Ras-Raf disruption/FRET/MOA assay (BRAF RBD, Cyclophilin A)
# Assay type: biochemical
pIC50: −log10 of the molar value.

As a guide, the following entries are already answered.
CCn1c(-c2cccnc2[C@H](C)OC)c2c3cc(ccc31)-c1csc(n1)C[C@H](NC(=O)[C@H](C(C)C)N(C)C(=O)N1CC[C@]3(CCNC3=O)C1)C(=O)N1CCC[C@H](N1)C(=O)OCC(C)(C)C2 ... 6.00 to 7.00
CCn1c(-c2cccnc2[C@H](C)OC)c2c3cc(ccc31)-c1csc(n1)C[C@H](NC(=O)[C@H](C(C)C)N(C)C(=O)N1CCOCC13COC3)C(=O)N1CCC[C@H](N1)C(=O)OCC(C)(C)C2 ... 6.00 to 7.00
CCn1c(-c2cccnc2[C@H](C)OC)c2c3cc(ccc31)-c1cc(O)cc(c1)C[C@H](NC(=O)[C@H](C(C)C)N(C)C(=O)C13CC(CO1)C3)C(=O)N1CCC[C@H](N1)C(=O)OCC(C)(C)C2 ... 7.00 to 8.00

# next molecule below
input: Look up pIC50: `CCn1c(-c2cccnc2[C@H](C)OC)c2c3cc(ccc31)-c1csc(n1)C[C@H](NC(=O)[C@H](C(C)C)N(C)C(=O)[C@H]1[C@@H]3CNC[C@@H]31)C(=O)N1CCC[C@H](N1)C(=O)OCC(C)(C)C2`
output: 5.00 to 6.00

###

# Test Target: K-Ras G12C(GMP-PNP) binding to BRAF RBD (Homo sapiens (Human), UniProt P01116+P62937, G12C)
# Sequence (P01116 other isoform, or with tags, fused parts or gaps G12C): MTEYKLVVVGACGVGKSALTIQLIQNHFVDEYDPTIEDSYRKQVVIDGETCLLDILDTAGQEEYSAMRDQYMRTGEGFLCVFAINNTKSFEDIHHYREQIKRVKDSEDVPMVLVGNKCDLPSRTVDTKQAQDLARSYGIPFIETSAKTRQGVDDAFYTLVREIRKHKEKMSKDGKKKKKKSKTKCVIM
# Sequence (P62937 whole entry): as the sequence (P62937 whole entry) above
# Measurement Notes: Disruption of BRAF RBD interaction with K-Ras (FRET / MOA assay), K-Ras G12C
# Format: biochemical
# Conditions: read-out: KRAS G12C FRET IC50
Examples of compounds with documented IC50 follow.

As a guide, the following entries are already answered.
CCn1c(-c2cccnc2[C@H](C)OC)c2c3cc(ccc31)-c1nc(cs1)C[C@H](NC(=O)[C@H](C(C)C)N(C)C(C)=O)C(=O)N1CCC[C@H](N1)C(=O)OCC(C)(C)C2 ... 10 to 100 nM
CCn1c(-c2cc(N3CCN(C)CC3)cnc2[C@H](C)OC)c2c3cc(ccc31)-c1cccc(c1)C[C@H](NC(=O)[C@H](C(C)C)N(C)C(=O)[C@@H]1OCC[C@@H]1c1ccccc1)C(=O)N1CCC[C@H](N1)C(=O)OCC(C)(C)C2 ... 100 to 1000 nM
CCn1c(-c2cccnc2[C@H](C)OC)c2c3cc(ccc31)-c1csc(n1)C[C@H](NC(=O)[C@H](C(C)C)N(C)C(=O)N1CCC1C(=O)O)C(=O)N1CCC[C@H](N1)C(=O)OCC(C)(C)C2 (some centres unmarked) ... > 10000 nM

input: Look up IC50: `CCn1c(-c2cccnc2[C@H](C)OC)c2c3cc(ccc31)-c1csc(n1)C[C@H](NC(=O)[C@H](C(C)C)N(C)C(=O)N1CCN(C)[C@@H](c3ccccc3)C1)C(=O)N1CCC[C@H](N1)C(=O)OCC(C)(C)C2`
output: 100 to 1000 nM

input: Look up IC50: `CCn1c(-c2cccnc2[C@H](C)OC)c2c3cc(ccc31)-c1csc(n1)C[C@H](NC(=O)[C@H](C(C)C)N(C)C(=O)N(C)C[C@H]1CCN1C)C(=O)N1CCC[C@H](N1)C(=O)OCC(C)(C)C2`
output: 100 to 1000 nM

input: Look up IC50: `CCn1c(-c2cccnc2[C@H](C)OC)c2c3cc(ccc31)-c1csc(n1)C[C@H](NC(=O)[C@H](C(C)C)N(C)C(=O)N1CCC[C@H](N(C)C)CC1)C(=O)N1CCC[C@H](N1)C(=O)OCC(C)(C)C2`
output: 10 to 100 nM

input: Look up IC50: `CCn1c(-c2cccnc2[C@H](C)OC)c2c3cc(ccc31)-c1csc(n1)C[C@H](NC(=O)[C@H](C(C)C)N(C)C(=O)N(C)C1(C)COC1)C(=O)N1CCC[C@H](N1)C(=O)OCC(C)(C)C2`
output: < 10 nM

input: Look up IC50: `CCn1c(-c2cccnc2[C@H](C)OC)c2c3cc(ccc31)-c1csc(n1)C[C@H](NC(=O)[C@H](C(C)C)N(C)C(=O)N1CC[C@@H]1CN)C(=O)N1CCC[C@H](N1)C(=O)OCC(C)(C)C2`
output: 10 to 100 nM

input: Look up IC50: `CCn1c(-c2cccnc2[C@H](C)OC)c2c3cc(ccc31)-c1csc(n1)C[C@H](NC(=O)[C@H](C(C)C)N(C)C(=O)N1C[C@@H]3C[C@H]1CN3C)C(=O)N1CCC[C@H](N1)C(=O)OCC(C)(C)C2`
output: 100 to 1000 nM
